# Tested System: T1, cynomolgus NKp46 (cynomolgus monkey, UniProt Q95JB9 22-306)
# T1 construct: also called cyno NKp46; cynomolgus monkey NKp46
# T1 sequence (Q95JB9 22-306 limits assumed): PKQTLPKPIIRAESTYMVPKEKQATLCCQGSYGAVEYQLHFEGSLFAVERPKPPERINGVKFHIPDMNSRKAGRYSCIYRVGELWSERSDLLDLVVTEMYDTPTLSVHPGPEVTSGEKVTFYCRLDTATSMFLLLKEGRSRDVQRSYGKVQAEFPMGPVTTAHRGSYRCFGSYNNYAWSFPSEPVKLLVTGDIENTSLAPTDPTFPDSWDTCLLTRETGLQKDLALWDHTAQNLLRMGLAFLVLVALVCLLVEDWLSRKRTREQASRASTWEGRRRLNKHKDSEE
# Procedure Details: flow cytometry, HEK293F cells transfected with cyno NKp46
Measurement Type: Kd

# Binder, Measurement Type, Value Measured
measured = [
    ("NKp46-hz5D7v13-Fc* (Fc fusion, VHH-Fc fusion with an IgG1 Fc lacking a hinge (Fc*)) EVQLVESGGGEVQPGGSLRLSCAASGRTFASAAMGWFRQAPGKEREFVAAISRSDDTYYAESVKGRFTISRDNAKNTVYLQMSSLRAEDTAVYYCAAVVPTYGNTIYVHSAAYNYWGQGTLVTVKPGGGGPSVFLFPPKPKDTLMISRTPEVTCVVVDVSHEDPEVKFNWYVDGVEVHNAKTKPREEQYNSTYRVVSVLTVLHQDWLNGKEYKCKVSNKALPAPIEKTISKAKGQPREPQVYTLPPSRDELTKNQVSLTCLVKGFYPSDIAVEWESNGQPENNYKTTPPVLDSDGSFFLYSKLTVDKSRWQQGNVFSCSVMHEALHNHYTQKSLSLSPG", "Kd", "0.748 nM"),
]
